Measured Tm shift of individual entries
Target: Tyrosine-protein phosphatase non-receptor type 14 (Homo sapiens) (UniProt Q15678)
Sequence (Q15678 whole entry, looked up): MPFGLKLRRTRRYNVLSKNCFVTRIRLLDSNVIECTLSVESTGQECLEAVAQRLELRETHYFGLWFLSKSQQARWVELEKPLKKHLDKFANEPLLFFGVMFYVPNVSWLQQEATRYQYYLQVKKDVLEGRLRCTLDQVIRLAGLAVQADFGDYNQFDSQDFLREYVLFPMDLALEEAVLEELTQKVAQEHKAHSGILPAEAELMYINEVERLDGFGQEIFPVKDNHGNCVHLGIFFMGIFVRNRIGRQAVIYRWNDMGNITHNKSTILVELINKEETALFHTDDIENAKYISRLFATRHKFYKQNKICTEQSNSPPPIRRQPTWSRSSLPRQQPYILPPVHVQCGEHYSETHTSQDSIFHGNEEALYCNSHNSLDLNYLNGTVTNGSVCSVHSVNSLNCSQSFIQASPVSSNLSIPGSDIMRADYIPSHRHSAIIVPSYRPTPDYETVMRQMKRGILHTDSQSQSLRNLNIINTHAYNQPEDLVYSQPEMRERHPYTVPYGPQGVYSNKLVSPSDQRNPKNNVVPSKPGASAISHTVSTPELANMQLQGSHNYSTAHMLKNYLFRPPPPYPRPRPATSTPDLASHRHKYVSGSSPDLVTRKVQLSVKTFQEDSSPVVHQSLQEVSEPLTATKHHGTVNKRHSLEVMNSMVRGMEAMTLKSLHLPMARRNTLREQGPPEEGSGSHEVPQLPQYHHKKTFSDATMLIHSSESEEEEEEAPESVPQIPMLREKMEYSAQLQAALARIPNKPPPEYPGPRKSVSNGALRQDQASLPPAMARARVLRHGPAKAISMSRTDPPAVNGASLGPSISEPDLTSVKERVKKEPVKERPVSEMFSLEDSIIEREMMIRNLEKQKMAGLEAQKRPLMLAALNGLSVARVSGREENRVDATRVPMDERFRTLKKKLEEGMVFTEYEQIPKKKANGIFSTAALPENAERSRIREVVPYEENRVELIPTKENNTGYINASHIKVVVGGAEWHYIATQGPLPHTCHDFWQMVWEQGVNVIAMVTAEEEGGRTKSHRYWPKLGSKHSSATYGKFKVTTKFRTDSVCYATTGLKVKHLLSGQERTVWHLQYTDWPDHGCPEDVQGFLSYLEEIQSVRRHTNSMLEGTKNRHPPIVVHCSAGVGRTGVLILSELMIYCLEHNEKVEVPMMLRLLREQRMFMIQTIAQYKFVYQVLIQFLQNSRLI
Test: PTPN14 phosphatase ligand binding by thermal shift, biophysical, human, DSF, SYPRO orange (AID 394)
Conditions: recombinant PTPN14, DSF thermal shift, at 10 µM, protein 2 µM, buffer 10 mM HEPES, pH 7.5, NaCl 150 mM, active compounds read high

- molSmiles: "O=C(O)c1ccc(O)cn1.OO.[O]=[V]"
  Tm shift: "5.95 Celsius"
- molSmiles: "OO.OO.[K+].[O]=[V].c1cnc2c(c1)ccc1cccnc12"
  Tm shift: "5.88 Celsius"
- molSmiles: "O=C(O)c1ccc([O-])cn1.OO.OO.[K+].[K+].[O]=[V]"
  Tm shift: "4.45 Celsius"
- molSmiles: "OO.OO.[K+].[O]=[V].c1ccc(-c2ccccn2)nc1"
  Tm shift: "4.81 Celsius"
